Entry source: patent US20240385190A1

Molecular target: T1, SEAP
T1 construct: negative control antigen; also called SEAP-His protein
Test: ELISA

# binder, absorbance
rows = [
    ("KPEP11_07 (antibody, V domains shown, Rabbit IgG; also called anti-human EphA4 rabbit monoclonal antibody KPEP11_07) VH: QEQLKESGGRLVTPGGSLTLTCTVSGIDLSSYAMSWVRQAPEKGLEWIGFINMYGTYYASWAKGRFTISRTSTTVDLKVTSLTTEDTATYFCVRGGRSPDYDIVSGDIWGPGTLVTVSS VL: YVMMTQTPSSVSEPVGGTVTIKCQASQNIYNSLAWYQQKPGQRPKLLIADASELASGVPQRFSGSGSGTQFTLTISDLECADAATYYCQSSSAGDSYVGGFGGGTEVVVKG", 0.05),
    ("KPEP11_20 (antibody, V domains shown, Rabbit IgG; also called anti-human EphA4 rabbit monoclonal antibody KPEP11_20) VH: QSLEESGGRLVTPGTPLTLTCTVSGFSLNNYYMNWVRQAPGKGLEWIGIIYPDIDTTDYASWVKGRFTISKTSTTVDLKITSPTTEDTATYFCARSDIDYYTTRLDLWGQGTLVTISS VL: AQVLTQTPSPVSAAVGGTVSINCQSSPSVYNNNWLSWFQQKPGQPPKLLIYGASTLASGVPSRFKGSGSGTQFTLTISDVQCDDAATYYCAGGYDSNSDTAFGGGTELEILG", 0.067),
    ("KPEP11_02 (antibody, V domains shown, Rabbit IgG; also called anti-human EphA4 rabbit monoclonal antibody KPEP11_02) VH: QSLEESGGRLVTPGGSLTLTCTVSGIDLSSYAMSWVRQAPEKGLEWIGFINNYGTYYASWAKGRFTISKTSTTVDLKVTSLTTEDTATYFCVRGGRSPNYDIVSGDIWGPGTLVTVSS VL: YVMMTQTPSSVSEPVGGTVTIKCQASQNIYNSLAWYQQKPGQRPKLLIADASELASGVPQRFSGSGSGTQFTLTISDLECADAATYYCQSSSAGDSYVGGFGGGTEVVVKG", 0.071),
]
